- Tested on: Saccharomyces cerevisiae BY4741 SeMeCo community
- PROTOCOL SUMMARY: z-score of subpopulation abundance vs DMSO median, subpopulation auxotrophic for HM; higher = larger share of this subpopulation than in DMSO controls
- CONDITION DESCRIPTION: 10 µM; 24 h; SM minimal medium; subpopulation (auxotrophy): HM
Structures can show the parent of a compound that is named as a salt.
Label TRUE when z-score of subpopulation abundance is at or above -0.5; anything below gets FALSE.

| COMPOUND | CLASSIFICATION |
| --- | --- |
| CCCCCCCCOc1ccccc1C(=O)Nc1ccc(C(=O)OCC[N+](C)(CC)CC)cc1 [Otilonium Bromide] | TRUE |
| COCCCC/C(=N\OCCN)c1ccc(C(F)(F)F)cc1 [Fluvoxamine maleate] | TRUE |
| Cc1ccc(Nc2c(F)cccc2Cl)c(CC(=O)O)c1 | TRUE |
| C[C@H]1COc2c(N3CCN(C)CC3)c(F)cc3c(=O)c(C(=O)O)cn1c23 [Levofloxacin hydrate] | TRUE |
| Nc1ccc2cc3ccc(N)cc3nc2c1 [Proflavine] | TRUE |
| COC(=O)C1=C(C)NC(C)=C(C(=O)OC)C1c1ccccc1[N+](=O)[O-] | TRUE |
| CSc1nc2cc(Cl)c(Oc3cccc(Cl)c3Cl)cc2[nH]1 | FALSE |
| CCc1c(C)[nH]c2c1C(=O)C(CN1CCOCC1)CC2 (stereo unspecified) [Molindone hydrochloride] | FALSE |
| CN1CC(=O)N2[C@H](c3ccc4c(c3)OCO4)c3[nH]c4ccccc4c3C[C@@H]2C1=O | TRUE |
| NCCNc1ccc(NCCN)c2c1C(=O)c1ccncc1C2=O [Pixantrone Maleate] | FALSE |
| O=C(O)c1cc(=O)c2c(OCC(O)COc3cccc4oc(C(=O)O)cc(=O)c34)cccc2o1 [Disodium Cromoglycate] | TRUE |
| CO[C@@]1(NC(=O)CSC[C@@H](N)C(=O)O)C(=O)N2C(C(=O)O)=C(CSc3nnnn3C)CS[C@@H]21 [Cefminox Sodium] | TRUE |
| COc1ccc2[nH]c([S@@+]([O-])Cc3ncc(C)c(OC)c3C)nc2c1 [NEXIUM (esomeprazole magnesium)] | TRUE |
| Cc1cccc(C)c1OCC(C)N (stereo unspecified) [Mexiletine HCl] | FALSE |
| CC(C)[N+]1(C)[C@@H]2CC[C@H]1C[C@@H](OC(=O)C(CO)c1ccccc1)C2 (stereo partly specified) [Ipratropium Bromide] | TRUE |
| COc1ccc2cc(CCC(C)=O)ccc2c1 | FALSE |
